Quick reference for solubility among some compounds
# Tested on: aqueous buffer solubility, pH 5.0/6.2/7.4
# Procedure Details: compound solubility, pH 5.0, 6.2, 7.4 – biophysical, set 2, ADME assay (AID 624323)
# Assay Context: at 100 µM; hits give high values
Calls of active or inactive are those of the source. The rule behind the calls is not given here.

| Compound | solubility |
| --- | --- |
| COc1ccc(C2CC(c3ccccc3)=NN2c2ccc(S(N)(=O)=O)cc2)cc1 (stereo unspecified) | 0.05 µg/mL (inactive) |
| Cc1cc2c(s1)c1cnn(Cc3ccccc3F)c(=O)c1n2C | 0.11 µg/mL (inactive) |
| Cc1ccc(S(=O)(=O)n2c(N)nc3ccccc32)cc1 | 2.4 µg/mL (inactive) |
| Cc1ccc(NS(=O)(=O)c2ccc3c(c2)CCC(=O)N3)cc1C | 27.1 µg/mL |

Request: I'd like to know its solubility. The compound in question is CCc1nnc(NC(=O)c2ccc(NS(=O)(=O)c3ccccc3)cc2)s1
Result: 0.78 µg/mL (inactive)

Request: Same question for Cc1ccc(S(=O)(=O)C(c2ccccc2)c2c(C)noc2C)cc1 (stereo unspecified) please.
Result: 16.5 µg/mL

Request: Same question for O=C(COc1ccccc1Br)NCCc1nc2ccccc2[nH]1 please.
Result: > 37 µg/mL

Request: Same question for CCCn1ncc(CN2CCCC(C(=O)c3cccc(OC(C)C)c3)C2)c1C (stereo unspecified) please.
Result: > 38 µg/mL

Request: Same question for Cc1cc(-c2nnc3n2CCCCC3)c(C)n1-c1ccccc1 please.
Result: > 30 µg/mL

Request: Same question for Cc1cc(C)nc(-n2nc(C)c(Sc3ccc(F)cc3)c2N)n1 please.
Result: 9.3 µg/mL (inactive)

Request: Same question for CN1CSC(=S)N(C)C1 please.
Result: > 16 µg/mL

Request: Same question for O=c1c2ccccc2[se]n1-c1ccccc1 please.
Result: 5.6 µg/mL (inactive)

Request: Same question for COc1nc(-c2ccccc2)nnc1-c1ccccc1 please.
Result: 0.38 µg/mL (inactive)

Request: Same question for O=S(=O)(NC1CCCCC1N1CCOCC1)c1ccc(Cl)cc1 (stereo unspecified) please.
Result: 26.2 µg/mL

Request: Same question for COc1ccc(S(=O)(=O)n2nc(OC(=O)c3ccccc3)cc2N)cc1 please.
Result: 14.9 µg/mL

Request: Same question for CS(=O)(=O)c1ccc(C(=O)OCC(=O)NC23CC4CC(CC(C4)C2)C3)cc1[N+](=O)[O-] please.
Result: 3 µg/mL (inactive)

Request: Same question for Cc1ccc(S(=O)(=O)NCc2ccc(C(=O)NCCN(Cc3ccccc3)C(C)C)cc2)cc1 please.
Result: 19.6 µg/mL

Request: Same question for c1ccc(-c2nnc(N3CCOCC3)nc2-c2ccccc2)cc1 please.
Result: 2.3 µg/mL (inactive)

Request: Same question for Oc1cc(O)cc(/C=C/c2ccc(O)c(O)c2)c1 please.
Result: 10.1 µg/mL

Request: Same question for COc1ccc(C2c3c(ncn(CCN4CCOCC4)c3=N)Oc3ccc4ccccc4c32)cc1OC (stereo unspecified) please.
Result: 41.5 µg/mL

Request: Same question for CCOC(=O)C(C)Oc1cccc2c(=O)n(CC(=O)Nc3ccc4c(c3)OCCO4)ccc12 (stereo unspecified) please.
Result: 0.36 µg/mL (inactive)

Request: Same question for CCCc1nc2c(=O)n(C)c(=O)nc-2n(C)n1 please.
Result: > 23 µg/mL

Request: Same question for CN(C)c1oc(-c2ccc(OCc3ccc(Cl)cc3)cc2)nc1C#N please.
Result: 0.08 µg/mL (inactive)

Request: Same question for Cc1cccc(-n2cnc3cc(C(=O)N4CCCCC4)ccc32)c1 please.
Result: > 32 µg/mL

Request: Same question for CCCc1cc(C(=O)N(C2CCCCC2)C2CCCCC2)no1 please.
Result: 1.3 µg/mL (inactive)

Request: Same question for O=C(O)c1ccc(N2C(=O)/C(=C/c3ccc(-c4ccc([N+](=O)[O-])cc4)o3)C=C2c2ccccc2)cc1 please.
Result: 0.79 µg/mL (inactive)
